study_system: SMARCA4 (Homo sapiens, UniProt P51532)
Construct: SMARCA2/SMARCA4 protein degradation selectivity in MV4-11 cells; endogenous in cells; host or cells: MV4-11
Sequence (P51532 whole entry): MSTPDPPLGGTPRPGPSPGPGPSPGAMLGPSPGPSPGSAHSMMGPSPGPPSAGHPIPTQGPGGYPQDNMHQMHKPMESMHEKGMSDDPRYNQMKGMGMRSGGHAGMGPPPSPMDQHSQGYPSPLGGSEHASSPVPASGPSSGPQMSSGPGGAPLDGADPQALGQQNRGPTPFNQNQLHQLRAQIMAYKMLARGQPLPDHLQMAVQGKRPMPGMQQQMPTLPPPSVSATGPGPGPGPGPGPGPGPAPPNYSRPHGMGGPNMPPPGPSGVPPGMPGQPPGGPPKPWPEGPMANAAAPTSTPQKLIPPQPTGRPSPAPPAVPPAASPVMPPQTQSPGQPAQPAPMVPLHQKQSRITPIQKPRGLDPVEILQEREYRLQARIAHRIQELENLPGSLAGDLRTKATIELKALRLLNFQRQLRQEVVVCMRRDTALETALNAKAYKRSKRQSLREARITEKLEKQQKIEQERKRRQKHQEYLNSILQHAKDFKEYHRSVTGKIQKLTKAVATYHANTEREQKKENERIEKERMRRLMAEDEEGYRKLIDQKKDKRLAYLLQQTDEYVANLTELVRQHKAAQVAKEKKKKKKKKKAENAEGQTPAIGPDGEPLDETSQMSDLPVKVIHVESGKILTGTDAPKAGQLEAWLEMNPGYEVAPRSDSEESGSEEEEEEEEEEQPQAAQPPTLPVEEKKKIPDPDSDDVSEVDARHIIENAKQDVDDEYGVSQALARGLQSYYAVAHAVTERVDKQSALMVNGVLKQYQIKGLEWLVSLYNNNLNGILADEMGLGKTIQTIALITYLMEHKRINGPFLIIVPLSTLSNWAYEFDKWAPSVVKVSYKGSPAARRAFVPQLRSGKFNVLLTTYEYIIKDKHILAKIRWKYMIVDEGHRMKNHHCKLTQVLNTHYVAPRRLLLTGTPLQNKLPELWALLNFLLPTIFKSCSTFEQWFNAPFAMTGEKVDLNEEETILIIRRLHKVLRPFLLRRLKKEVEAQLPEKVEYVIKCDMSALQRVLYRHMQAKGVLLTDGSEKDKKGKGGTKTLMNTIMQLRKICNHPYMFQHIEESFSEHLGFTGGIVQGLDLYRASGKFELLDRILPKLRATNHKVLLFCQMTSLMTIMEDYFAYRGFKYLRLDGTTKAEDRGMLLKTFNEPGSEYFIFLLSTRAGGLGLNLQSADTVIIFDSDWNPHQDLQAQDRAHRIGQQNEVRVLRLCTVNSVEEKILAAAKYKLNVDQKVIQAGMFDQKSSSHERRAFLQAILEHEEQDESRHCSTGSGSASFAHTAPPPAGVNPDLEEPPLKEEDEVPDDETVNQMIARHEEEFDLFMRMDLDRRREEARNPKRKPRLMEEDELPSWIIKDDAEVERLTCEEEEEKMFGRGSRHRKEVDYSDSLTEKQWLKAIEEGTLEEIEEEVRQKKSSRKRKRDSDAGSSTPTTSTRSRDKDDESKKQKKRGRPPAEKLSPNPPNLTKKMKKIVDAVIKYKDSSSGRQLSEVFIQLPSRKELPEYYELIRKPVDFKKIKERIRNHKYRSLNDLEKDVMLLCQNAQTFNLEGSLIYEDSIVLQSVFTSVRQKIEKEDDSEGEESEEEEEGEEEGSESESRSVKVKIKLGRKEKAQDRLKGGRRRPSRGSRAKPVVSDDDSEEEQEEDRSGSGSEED
experimental_protocol: SMARCA4 Western blot degradation in MV4-11 cells
Format: cell-based
stated_conditions: MV4-11, MV4-11 cells, 24 h; read-out: SMARCA4 MSD MV411 degradation 24 h: average Dmax %
The following compounds are shown together with reported Dmax values.

Sample records with Dmax:
compound	Dmax
COc1cc(C(C(=O)N2C[C@H](O)C[C@H]2C(=O)NCC#Cc2ccccc2OCCCCN2CCC(c3cnc(N4CCN5c6cc(-c7ccccc7O)nnc6NC[C@H]5C4)nc3)CC2)C(C)C)on1 (stereo partly shown)	> 90%
C#Cc1ccc(CNC(=O)[C@@H]2C[C@@H](O)CN2C(=O)[C@H](NC(=O)N2CC3(CC(N4CCC(c5cnc(N6CCc7[nH]c8nnc(-c9ccccc9O)cc8c7[C@H]6C)nc5)CC4)C3)C2)C(C)(C)CCOCC(=O)O)cc1 (single isomer, unassigned)	< 50%
C#Cc1ccc([C@H](C)NC(=O)[C@@H]2C[C@@H](O)CN2C(=O)[C@@H](NC(=O)N2CC3(C2)CN(C2CCN(c4cnc(N5CCc6[nH]c7nnc(-c8ccccc8O)cc7c6[C@H]5C)nc4)CC2)C3)C(C)(C)C)cc1	70 to 90%

# input for lookup
# input Which Dmax value is on record for C#Cc1ccc(CNC(=O)[C@@H]2C[C@@H](O)CN2C(=O)[C@@H](NC(=O)N2CCC(C(=O)N3CCC(N4CCC(N5CCc6[nH]c7nnc(-c8ccccc8O)cc7c6[C@H]5C)CC4)CC3)CC2)C(C)(C)C)cc1 ?
# output < 50%

----------
study_system: SMARCA4 (Homo sapiens, UniProt P51532)
Construct: SMARCA2/SMARCA4 protein degradation selectivity in MV4-11 cells; endogenous in cells; host or cells: MV4-11
experimental_protocol: SMARCA4 Western blot degradation in MV4-11 cells
Type: cell-based
stated_conditions: MV4-11 cells, 24 h; read-out: SMARCA4 MSD MV411 degradation 24 h: Mean external-Abs DC50
readout_type: DC50

Sample answers from the record:
compound	study_system	DC50
C#Cc1ccc([C@H](C)NC(=O)[C@@H]2C[C@@H](O)CN2C(=O)C(c2cc(N3CC4(CC(N5CCC(N6CCC(N7CCN8c9cc(-c%10ccccc%10O)nnc9NC[C@H]8C7)CC6)CC5)C4)C3)no2)C(C)C)cc1 (stereo partly shown) [I-332]	SMARCA4 (Homo sapiens, UniProt P51532)	1 to 10 nM
C#Cc1ccc(CNC(=O)[C@@H]2C[C@@H](O)CN2C(=O)[C@@H](NC(=O)[C@H]2CC3(C2)C[C@H](N2CCC(N4CCC(N5CCN6c7cc(-c8ccccc8O)nnc7NC[C@H]6C5)CC4)CC2)C3)C(C)(C)C)cc1 (single isomer, unassigned) [I-113]	SMARCA4 (Homo sapiens, UniProt P51532)	> 100 nM
C#Cc1ccc(CNC(=O)[C@@H]2C[C@@H](O)CN2C(=O)[C@@H](NC(=O)N2CC3(CC(N4CCC(c5cnc(N6CCc7[nH]c8nnc(-c9ccccc9O)cc8c7[C@H]6C)nc5)CC4)C3)C2)C(C)(C)CCO)c(Cl)c1 (single isomer, unassigned) [I-317]	SMARCA4 (Homo sapiens, UniProt P51532)	> 100 nM

Okay, next one:
# input State its DC50 on SMARCA4 (Homo sapiens, UniProt P51532): C#Cc1ccc(CNC(=O)[C@@H]2C[C@@H](O)CN2C(=O)[C@@H](NC(=O)[C@H]2CC3(C2)C[C@H](c2cnc(N4CCC(N5CCN6c7cc(-c8ccccc8O)nnc7NC[C@H]6C5)CC4)nc2)C3)C(C)(C)C)cc1 (single isomer, unassigned) [I-301]
# output 10 to 100 nM
